Tested on: K562
Assay: MTT cytotoxicity, K562 chronic myeloid leukemia cells
Type: cell-based
Conditions: Homo sapiens, K562, suspension culture, 48 h (Table 2)
Experimental: […] Cells MCF-7, PC-3, A549, and HCT-116, and primary cultures of STSwere seeded in 96-well plates, 6 × 10^3 cells per well in 90 μL of culture medium. […] The optical density was determined using a Multiskan FC spectrophotometer (Thermo Scientific, Waltham, MA, USA) at a wavelength of 540 nm. […]
pIC50: −log10 of the molar value.
List of pIC50 values.
endpointLabel: pIC50

C=C1C2=C(C(=O)N1OC)[C@@H](N(CCCC)CCCC)[C@@](C)(O)[C@H](CCCCC)O2 : 5.19
C=C1C2=C(C(=O)N1OC)[C@@H](N(C)CCO)[C@@](C)(O)[C@H](CCCCC)O2 : 5.47
C=C1C2=C(C(=O)N1OC)[C@@H](N(C)C)[C@@](C)(O)[C@H](CCCCC)O2 : 5.62

* * *

test system: A549; test: MTT cytotoxicity, A549 non-small cell lung cancer cells; type: cell-based, human; conditions: Homo sapiens, A549, adhesive tumor culture, 48 h
pIC50: −log10 of the molar value.
We begin with a simple list: items and their reported pIC50.
endpointLabel: pIC50

C=C1C2=C(C(=O)N1OC)[C@@H](N1CCCC1)[C@@](C)(O)[C@H](CCCCC)O2 [Compound 1] : 4.85
COc1cc([C@@H]2c3cc4c(cc3[C@@H](O[C@@H]3O[C@@H]5CO[C@@H](C)O[C@H]5[C@H](O)[C@H]3O)[C@H]3COC(=O)[C@H]23)OCO4)cc(OC)c1O [Etoposide, etoposide, reference compound] : 4.19
C=C1C2=C(C(=O)N1OC)[C@@H](N(CC)CCO)[C@@](C)(O)[C@H](CCCCC)O2 [Compound 9] : 5.05
C=C1C2=C(C(=O)N1OC)[C@@H](N(CCCC)CCCC)[C@@](C)(O)[C@H](CCCCC)O2 [Compound 5] : 4.63
C=C1C2=C(C(=O)N1OC)[C@@H](N(C)C)[C@@](C)(O)[C@H](CCCCC)O2 [Compound 2] : 5.02
C=C1C2=C(C(=O)N1OC)[C@@H](N(C)CCO)[C@@](C)(O)[C@H](CCCCC)O2 [Compound 8] : 4.79

* * *

system: Jurkat; test: MTT cytotoxicity, Jurkat acute T-cell leukemia cells; assay type: cell-based; conditions: Homo sapiens, suspension culture, 48 h
endpointLabel: IC50 (nM)

C=C1C2=C(C(=O)N1OC)[C@@H](N(CCCC)CCCC)[C@@](C)(O)[C@H](CCCCC)O2 [Compound 5] : 3700
CCCCC[C@@H]1OC2=C(C(=O)N(OC)/C2=C\n2cnnc2)C(n2cnnc2)[C@@]1(C)O (stereo partly shown) [Compound 10] : 94000
C=C1C2=C(C(=O)N1OC)[C@@H](N1CCCC1)[C@@](C)(O)[C@H](CCCCC)O2 [Compound 1] : 1500
C=C1C2=C(C(=O)N1OC)[C@@H](N(C)CCO)[C@@](C)(O)[C@H](CCCCC)O2 [Compound 8] : 1000

* * *

system: ERK 1/2 (pThr185/pTyr187); assay: MILLIPLEX MAP 9-Plex, ERK 1/2 active form in A431 lysates; format: cell-based, human; settings: A431 cells, 10 μM
endpointLabel: activation of signaling pathway ERK/MAP kinase 1/2 (pThr185/pTyr187), in words

CCCCC[C@@H]1OC2=C(C(=O)N(OC)/C2=C\n2cnnc2)C(n2cnnc2)[C@@]1(C)O (stereo partly shown) : only slightly activated
C=C1C2=C(C(=O)N1OC)[C@@H](N(CCCC)CCCC)[C@@](C)(O)[C@H](CCCCC)O2 : only slightly activated
C=C1C2=C(C(=O)N1OC)[C@H](O)[C@@](C)(O)[C@H](CCCCC)O2 [PPA, phaeosphaeride A] : only slightly activated

* * *

Examples of compounds with documented p38 (pThr180/pTyr182) fluorescence intensity follow.
Test system: p38 (pThr180/pTyr182)
Experiment: MILLIPLEX MAP 9-Plex, p38 active form in A431 lysates
Format: cell-based, human
Settings: A431 cell lysates, 10 μM, 1 h, M ± mx; control 567.7 ± 266.6
Description: […] We used a MILLIPLEX MAP Multi-Pathway Magnetic Bead 9-Plex-Cell Signaling Multiplex Assay kit (Merck/Millipore), according to the manufacturer’s protocol. […] Cell lysates were prepared with lysis buffer (Millipore) with protease inhibitors (Complete, Roche); the protein concentration in the lysates was determined by the Lowry method. In samples equalized in protein concentration, the active forms of kinase cascades were determined using a Bio-Plex 200 fluorescent analyzer (Bio-Rad).
endpointLabel: p38 (pThr180/pTyr182) fluorescence intensity (rel. units)

C=C1C2=C(C(=O)N1OC)[C@@H](N1CCCC1)[C@@](C)(O)[C@H](CCCCC)O2 : 2349.9
C=C1C2=C(C(=O)N1OC)[C@@H](N(CC)CCO)[C@@](C)(O)[C@H](CCCCC)O2 : 657.1
C=C1C2=C(C(=O)N1OC)[C@@H](N(CCCC)CCCC)[C@@](C)(O)[C@H](CCCCC)O2 : 1245.9

* * *

# pIC50 listing for each entry below
tested on: Jurkat; experiment: MTT cytotoxicity, Jurkat acute T-cell leukemia cells; format: cell-based; details: Homo sapiens, suspension culture, 48 h
pIC50: −log10 of the molar value.
endpointLabel: pIC50

C=C1C2=C(C(=O)N1OC)[C@@H](N(CC)CCO)[C@@](C)(O)[C@H](CCCCC)O2 : 5.89
COc1cc([C@@H]2c3cc4c(cc3[C@@H](O[C@@H]3O[C@@H]5CO[C@@H](C)O[C@H]5[C@H](O)[C@H]3O)[C@H]3COC(=O)[C@H]23)OCO4)cc(OC)c1O [Etoposide, etoposide, reference compound] : 6.05
C=C1C2=C(C(=O)N1OC)[C@@H](N(C)C)[C@@](C)(O)[C@H](CCCCC)O2 : 5.96

* * *

test system: p38 (pThr180/pTyr182); assay: MILLIPLEX MAP 9-Plex, p38 active form in A431 lysates; format: cell-based, human; conditions: A431 cells, 10 μM
endpointLabel: activation of signaling pathway p38 (pThr180/pTyr182), in words

CCCCC[C@@H]1OC2=C(C(=O)N(OC)/C2=C\n2cnnc2)C(n2cnnc2)[C@@]1(C)O (stereo partly shown) : only slightly activated
C=C1C2=C(C(=O)N1OC)[C@H](O)[C@@](C)(O)[C@H](CCCCC)O2 [PPA, phaeosphaeride A] : only slightly activated
C=C1C2=C(C(=O)N1OC)[C@@H](N(CCCC)CCCC)[C@@](C)(O)[C@H](CCCCC)O2 : only slightly activated

* * *

p38 (pThr180/pTyr182) fluorescence intensity values for the compounds below.
test system: p38 (pThr180/pTyr182); assay: MILLIPLEX MAP 9-Plex, p38 active form in A431 lysates; assay type: cell-based, human; details: A431 cell lysates, 10 μM, 1 h, M ± mx; control 567.7 ± 266.6
endpointLabel: p38 (pThr180/pTyr182) fluorescence intensity

CCCCC[C@@H]1OC2=C(C(=O)N(OC)/C2=C\n2cnnc2)C(n2cnnc2)[C@@]1(C)O (stereo partly drawn) [Compound 10] : 1783.6 ± 181.9 *↑ rel. units
C=C1C2=C(C(=O)N1OC)[C@H](O)[C@@](C)(O)[C@H](CCCCC)O2 [PPA, phaeosphaeride A] : 1459.1 ± 117.6 *↑ rel. units
C=C1C2=C(C(=O)N1OC)[C@@H](N(C)C)[C@@](C)(O)[C@H](CCCCC)O2 [Compound 2] : 2795.4 ± 572.0 *↑ rel. units
